Tested on: U251 CNS
test: NCI-60 one-dose screen, 48 h (100 = growth as untreated, 0 = no growth, -100 = all killed)
test_settings: 10 µM unless noted
Procedure: Growth inhibition of the U251 human tumor cell line is measured as a screen for anti-cancer activity. Cells are grown in 96 well plates and exposed to the test compound for 48 hours. Compounds are tested at a single concentration, which is 10^-5 M for most compounds. The reported endpoint is percent growth (GI% or GIPRCNT), where numbers from 0 - 100% represent growth inhibition, and numbers from -100% - 0 represent cell death. For example, a value of 40 represents 60% growth inhibition. […]
The panel holds about 83,000 compounds, 20% with a hit somewhere; the sample as a whole holds those more often.
So basically: is growth under 60%? Then class 1. Not under? Then class 0.

[
  {
    "compound": "Oc1ccc(C2c3ccccc3Oc3ccccc32)c2cccnc12",
    "cat": "class 1"
  },
  {
    "compound": "CC(Sc1nc2sc3c(c2c(=O)n1-c1ccc(Cl)cc1)CCCC3)C(=O)Nc1nc(-c2ccc(Br)cc2)cs1 (stereo unspecified)",
    "cat": "class 0"
  },
  {
    "compound": "COc1cc2oc(-c3cccc(C(=O)Nc4ccc(Cl)cc4)c3)cc(=O)c2c(O)c1OC",
    "cat": "class 1"
  },
  {
    "compound": "CCCCOc1ccc(/C(C)=N/Nc2cc(C)nc3ccc(Br)cc23)cc1",
    "cat": "class 1"
  },
  {
    "compound": "O=C(CCN1CCCC1)Nc1ccc2c(NCc3ccccc3)c3ccccc3nc2c1",
    "cat": "class 1"
  },
  {
    "compound": "C[C@H]1[C@H]2[C@H]3CC[C@@H]4[C@@]5(C)CC[C@H](O)C(C)(C)[C@@H]5CC[C@@]4(C)[C@]3(C)CC[C@]23CO[C@]1(C)[C@@H](C(=O)/C=C\\c1ccco1)C3",
    "cat": "class 0"
  },
  {
    "compound": "COc1ccc(/C=C/c2nc(Nc3ccc(S(=O)(=O)Nc4cc(C)on4)cc3)c3ccccc3n2)cc1",
    "cat": "class 0"
  },
  {
    "compound": "O=C(Cc1ccccc1)NNc1nc(Cl)nc(N2CCN(C(c3ccccc3)c3ccccc3)CC2)n1",
    "cat": "class 0"
  },
  {
    "compound": "COc1ccc(/C=C/c2nc(Nc3ccc(S(=O)(=O)NC(C)=O)cc3)c3ccccc3n2)cc1",
    "cat": "class 0"
  },
  {
    "compound": "Cc1cc2c(c(C)c1Cl)C(=O)/C(=C/c1ccc(O)c(O)c1)O2",
    "cat": "class 0"
  },
  {
    "compound": "COc1ccc2[nH]c(O)c(/C=c3/cc4c(c(-c5ccc(F)cc5)n3)=Nc3ccccc3-4)c2c1",
    "cat": "class 0"
  },
  {
    "compound": "NC1=NN=C(N)C1=Cc1cc2ccccc2n2nnnc12",
    "cat": "class 0"
  },
  {
    "compound": "CC(C)N1C(=O)/C(=C2\\SC(=S)N(C(C)C)C2=O)SC1=S",
    "cat": "class 0"
  },
  {
    "compound": "CCN(CC)CCn1c(=O)c2cc(OC)c(OC)cc2c2ccc3cc4c(cc3c21)OCO4",
    "cat": "class 1"
  },
  {
    "compound": "COc1cc2c(c(OC)c1OC)-c1ccc(NNC(=S)N(Cc3cccc(C[N+](Cc4cccc(CNC56CC7CC(CC(C7)C5)C6)c4)(Cc4cccc(CNC56CC7CC(CC(C7)C5)C6)c4)Cc4cccc(CN(C(=S)NNc5ccc6c(cc5=O)[C@@H](NC(C)=O)CCc5cc(OC)c(OC)c(OC)c5-6)C56CC7CC(CC(C7)C5)C6)c4)c3)C34CC5CC(CC(C5)C3)C4)c(=O)cc1[C@@H](NC(C)=O)CC2 (stereo partly specified)",
    "cat": "class 1"
  },
  {
    "compound": "COc1cc2c(c(O)c1Cl)C(=O)c1c(O)cc(C[C@H](C)O)cc1[C@H]2[C@H]1c2cc(C[C@H](C)O)cc(O)c2C(=O)c2c1cc(OC)c(Cl)c2O",
    "cat": "class 1"
  },
  {
    "compound": "CNCCn1c(=O)c2cc(OC)c(OC)cc2c2ccc3cc4c(cc3c21)OCO4",
    "cat": "class 1"
  },
  {
    "compound": "O=C(C1CCC1)N1N=C(c2ccc(-n3ccc(C(F)(F)F)n3)cc2)CC1c1ccc[nH]1 (stereo unspecified)",
    "cat": "class 0"
  },
  {
    "compound": "COc1cccc(-c2nc3occn3c2-c2ccnc(NCCNS(=O)(=O)c3cccc4ccccc34)n2)c1",
    "cat": "class 0"
  },
  {
    "compound": "CCOC(=O)C1=C(C)NC(SCc2cc(=O)oc3ccc(F)cc23)=N[C@@H]1c1cccc2ccccc12",
    "cat": "class 0"
  },
  {
    "compound": "COc1cc2c3c(c4c5ccccc5[nH]c4c2c(OC)c1OC)C(=O)N(CCN1CCOCC1)C3=O",
    "cat": "class 1"
  },
  {
    "compound": "Cc1ccc(NC(C(=O)c2ccccc2)c2ccccc2)cc1 (stereo unspecified)",
    "cat": "class 1"
  },
  {
    "compound": "O=Cc1cc2ccccc2nc1Oc1ccc(C(F)(F)F)cc1",
    "cat": "class 0"
  },
  {
    "compound": "N#Cc1c(NCc2ccccc2I)sc2c1CCCCC2",
    "cat": "class 0"
  },
  {
    "compound": "Oc1ccc(OCCOc2ccc(O)cc2)cc1",
    "cat": "class 1"
  },
  {
    "compound": "Cc1cccc(NC(=O)Nc2ccc(-n3cnc4cc(-c5ccc(O)cc5)ccc43)cc2)c1",
    "cat": "class 1"
  },
  {
    "compound": "COc1cc2nc(-c3ccc(C(F)(F)F)cc3)cc(OCCN3CCCCC3)c2cc1OC",
    "cat": "class 0"
  },
  {
    "compound": "CN(C)CC(O)c1ccc(/C=C/c2ccc(Cl)cc2)cc1 (stereo unspecified)",
    "cat": "class 1"
  },
  {
    "compound": "COc1cccc(-c2nc3occn3c2-c2ccnc(NCCNS(=O)(=O)c3ccc(C(F)(F)F)cc3)n2)c1",
    "cat": "class 0"
  },
  {
    "compound": "CCOC(=O)/C(C#N)=C1/NNC(=Nc2cccnc2)S1",
    "cat": "class 0"
  },
  {
    "compound": "COc1cc(OC)cc(C(=O)C[n+]2cccc3cc[nH]c32)c1",
    "cat": "class 0"
  },
  {
    "compound": "Cc1ccc(-c2csc(NC(=O)CSc3nc(-c4ccccc4)cc(=O)[nH]3)n2)cc1",
    "cat": "class 0"
  },
  {
    "compound": "Cc1ccc(/C=C(/C#N)n2nnc3cccc(F)c32)cc1",
    "cat": "class 1"
  },
  {
    "compound": "C#CCNC(=O)c1cccc2c1cc(C)n2-c1nc2c(c(NCc3ccccc3)n1)CCCC2",
    "cat": "class 1"
  },
  {
    "compound": "CN(C)CCn1c2ccc(Br)cc2c2nc3ccccc3nc21",
    "cat": "class 1"
  }
]

====

Tested on: MOLT-4 leukemia
test: NCI-60 one-dose screen, 48 h (100 = growth as untreated, 0 = no growth, -100 = all killed)
test_settings: 10 µM unless noted
About 83,000 compounds went through this panel and 20% of them were active in at least one assay; those are over-represented in the sample as a whole.
Below is a list of entries, each paired with its recorded growth value.
measured_metric: growth (%)

[
  {
    "compound": "CCCCNC(=O)Oc1ccc(/C(=C(\\C)c2ccccc2)c2ccc(OCCN3CCCCC3)cc2)cc1",
    "measured_metric": "growth",
    "quantitative_result": 53.8
  },
  {
    "compound": "CC(=O)Nc1ccc(-c2ccc3c(c2)NC(=O)/C3=C\\c2ccc[nH]2)cc1",
    "measured_metric": "growth",
    "quantitative_result": 87.3
  },
  {
    "compound": "Nc1n[nH]c2cccc(C#Cc3cccc(C(=O)Nc4cccc(C(F)(F)F)c4)c3)c12",
    "measured_metric": "growth",
    "quantitative_result": 39.2
  },
  {
    "compound": "CN1CCC(=C(c2ccccc2)c2ccccc2)C(c2ccccc2)C1 (centres undefined)",
    "measured_metric": "growth",
    "quantitative_result": 92.1
  },
  {
    "compound": "O=C(Nc1cccc(C2=NCCN2)c1)c1ccc(-c2ccc(C(=O)Nc3cccc(C4=NCCN4)c3)cc2)cc1",
    "measured_metric": "growth",
    "quantitative_result": 80.9
  },
  {
    "compound": "CCN1CCN(CCNc2nccc(-c3c(-c4cccc(OC)c4)nc4occn34)n2)S1(=O)=O",
    "measured_metric": "growth",
    "quantitative_result": 89
  },
  {
    "compound": "COc1cc(/C(C)=C(\\c2ccc(Cl)cc2)c2ccc(OCCN(C)C)cc2)ccc1F",
    "measured_metric": "growth",
    "quantitative_result": 42.4
  },
  {
    "compound": "O=S(=O)(NCCNc1nccc(-c2c(-c3cccc(O)c3)nc3occn23)n1)c1ccc(Cl)cc1",
    "measured_metric": "growth",
    "quantitative_result": 103
  },
  {
    "compound": "N/C(=N\\C(N)=N\\c1nc2ccccc2s1)c1ccnc(Br)c1",
    "measured_metric": "growth",
    "quantitative_result": 34
  }
]
